Target: coreTFIIH (7-subunit: XPB, XPD, p62, p52, p44, p34, p8) (human, UniProt P19447;P18074;P32780;Q92759;Q13888;Q13889;Q6ZYL4 …)
Experiment: EMSA
Readout name: Kd

// recorded Kd for 3'Cy5 40ss/24ds (mixed) DNA 1: TTTTTTTTTTTTTTTTTTTTTTTTTTTTTTTTTTTTTTTTGCTGTTGCCCGTCTCACTGGTGAA DNA 2: TTCACCAGTGAGACGGGCAACAGC : ~0.082 µM
